EC50 values by entry
Biological target: T1, human 4-1BB, full-length, expressed on cells (human, UniProt Q07011 24-255)
T1 construct: also called CD137; TNFRSF9
T1 sequence (Q07011 24-255): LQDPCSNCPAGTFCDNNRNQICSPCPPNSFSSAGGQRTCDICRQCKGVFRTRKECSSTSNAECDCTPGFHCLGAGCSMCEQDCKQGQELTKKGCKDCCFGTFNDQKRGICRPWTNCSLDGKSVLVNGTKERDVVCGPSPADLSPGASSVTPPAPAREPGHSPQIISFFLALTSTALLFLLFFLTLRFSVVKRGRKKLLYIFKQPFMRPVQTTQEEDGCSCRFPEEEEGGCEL
Assay: flow cytometry, Jurkat-4-1BB
API: value field is a number in nM; no unit string.

In: Look up EC50 for this binder: v28694 (antibody, human IgG1, kappa, L234A L235A, V domains shown, also called humanized 1G1 H3L4) VH: EVQLVESGGGLVQPGGSLRLSCAASGFTFSEFGMHWVRQAPGKGLEWVAYISSGGSTIYYADSVKGRFTISRDNAKNSLYLQMNSLRAEDTAMYYCARDWVDYWGQGTLLTVSS VL: EIVMTQSPATLSLSPGERVTLSCKASENVGSYVSWYQQKPGQAPRLLIYGASNRYTGVPARFSGSGSGTDFTLTISSVEPEDLAVYYCGQSYSYPLTFGGGTKLELKR
Out: 0.455

In: Look up EC50 for this binder: v20022 (antibody, human IgG1, kappa, L234A L235A, V domains shown, Mouse-human chimera; also called 1C8; 1C8 mouse-human parental chimera) VH: QVQLKESGPGLVAPSQSLSITCTVSGFSLTTYAISWVRQPPGKGLEWLGIIWPGGGTNYNSALKSRLSISKDNSRSQVFLKMNSLQTDDTARYYCARGAGTWYFDVWGAGTTVTVSS VL: DIQMTQSTSSLSASVGDRVTISCSASQGISNYLNWYQQKPDGTVKLLIYYTSSLHSGVPSRFSGSGSGTDYSLTISNLEPEDIATYYCQQYSKFPWTFGGGTKLEIKR
Out: 17.3

In: Look up EC50 for this binder: v28730 (antibody, human IgG1, kappa, L234A L235A, V domains shown, also called humanized 1C8 H8L3) VH: EVQLVESGGGLIQPGGSLRISCAVSGFSLTTYAISWVRQAPGKGLEWLGIIWPGGGTNYADSLKGRLTISKDNSKNTVYLQMNSLRTEDTAVYYCARGAGTWYFDVWGQGTLVTVSS VL: DIQMTQSPSSLSASVGDRVTITCSASQGISNYLNWYQQKPGKTVKLLIYYTSSLHSGVPSRFSGSGSGTDYTLTISSLQPEDIATYYCQQYSKFPWTFGQGTKLEIKR
Out: 88.7

Measured values drawn from patent US20230052369A1 for this set.
